# Test system: Escherichia coli TOP10
# test_protocol: shrunken log2 fold change of peptide-encoding DNA abundance (4.5 h post-induction vs induction); higher = less antimicrobial activity (less host growth inhibition)
# settings: time post-induction: 4.5 h; library: site-saturation at positions 5, 18, 19, 20
Listing of recorded shrunken log2 fold change by entry.
assay_readout: shrunken log2 fold change

> print(dat)
           monomer.sequence              assay.readout  reported
 1  RRIRERPPRLPRPRPRPPVSPRP  shrunken log2 fold change    0.0232
 2  RRIRLRPPRLPRPRPRPENKPRP  shrunken log2 fold change    -0.328
 3  RRIRARPPRLPRPRPRPGITPRP  shrunken log2 fold change     0.335
 4  RRIRLRPPRLPRPRPRPWDGPRP  shrunken log2 fold change    -0.153
 5  RRIRFRPPRLPRPRPRPNIYPRP  shrunken log2 fold change    -0.116
 6  RRIRWRPPRLPRPRPRPLVHPRP  shrunken log2 fold change     -0.11
 7  RRIRLRPPRLPRPRPRPACHPRP  shrunken log2 fold change     0.186
 8  RRIRYRPPRLPRPRPRPVQSPRP  shrunken log2 fold change    -0.017
 9  RRIRFRPPRLPRPRPRPKHTPRP  shrunken log2 fold change   -0.0698
10  RRIRVRPPRLPRPRPRPSSFPRP  shrunken log2 fold change    -0.423
11  RRIRPRPPRLPRPRPRPAVAPRP  shrunken log2 fold change     0.416
12  RRIRARPPRLPRPRPRPRPHPRP  shrunken log2 fold change     0.513
13  RRIRCRPPRLPRPRPRPIKLPRP  shrunken log2 fold change     -0.63
14  RRIRKRPPRLPRPRPRPHRGPRP  shrunken log2 fold change    0.0594
15  RRIRFRPPRLPRPRPRPAHKPRP  shrunken log2 fold change     0.225

====

shrunken log2 fold change: recorded values
# System: Escherichia coli TOP10;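 note: peptides expressed intracellularly from a pBAD plasmid library in pooled LB shake-flask culture, induced with 0.3% L-arabinose, DNA abundance read by NGS, three biological replicates, DESeq2 with apeglm shrinkage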
# test_protocol: shrunken log2 fold change of peptide-encoding DNA abundance (4.5 h post-induction vs induction); higher = less antimicrobial activity (less host growth inhibition)
# settings: time post-induction: 4.5 h; library: site-saturation at positions 5, 18, 19, 20
assay_readout: shrunken log2 fold change

> print(dat)
           monomer.sequence            study.target  reported
 1  RRIRCRPPRLPRPRPRPILRPRP  Escherichia coli TOP10     0.103
 2  RRIRQRPPRLPRPRPRPCIEPRP  Escherichia coli TOP10     0.015
 3  RRIRWRPPRLPRPRPRPGGWPRP  Escherichia coli TOP10     0.851
 4  RRIRMRPPRLPRPRPRPHPNPRP  Escherichia coli TOP10     0.299
 5  RRIRSRPPRLPRPRPRPRGEPRP  Escherichia coli TOP10     0.754
 6  RRIRRRPPRLPRPRPRPIAIPRP  Escherichia coli TOP10     0.108
 7  RRIRGRPPRLPRPRPRPIEAPRP  Escherichia coli TOP10     0.377
 8  RRIRYRPPRLPRPRPRPREQPRP  Escherichia coli TOP10    -0.659
 9  RRIRHRPPRLPRPRPRPAPKPRP  Escherichia coli TOP10    -0.164
10  RRIRLRPPRLPRPRPRPTQHPRP  Escherichia coli TOP10     0.218
11  RRIRYRPPRLPRPRPRPHNFPRP  Escherichia coli TOP10    -0.118
12  RRIRWRPPRLPRPRPRPDPRPRP  Escherichia coli TOP10     0.751
13  RRIRSRPPRLPRPRPRPQIRPRP  Escherichia coli TOP10     0.267
14  RRIRIRPPRLPRPRPRPYKCPRP  Escherichia coli TOP10    -0.199
15  RRIRVRPPRLPRPRPRPQCPPRP  Escherichia coli TOP10   -0.0117
16  RRIRPRPPRLPRPRPRPDGRPRP  Escherichia coli TOP10     0.101
17  RRIRRRPPRLPRPRPRPPDWPRP  Escherichia coli TOP10     0.618
18  RRIRWRPPRLPRPRPRPYKKPRP  Escherichia coli TOP10    -0.225
19  RRIRKRPPRLPRPRPRPGWQPRP  Escherichia coli TOP10     0.347
20  RRIRLRPPRLPRPRPRPIDPPRP  Escherichia coli TOP10    -0.379
21  RRIRIRPPRLPRPRPRPKALPRP  Escherichia coli TOP10   -0.0211
22  RRIRQRPPRLPRPRPRPTPLPRP  Escherichia coli TOP10     0.487
23  RRIRFRPPRLPRPRPRPLYTPRP  Escherichia coli TOP10     -0.58
24  RRIRTRPPRLPRPRPRPHTTPRP  Escherichia coli TOP10    -0.166
25  RRIRGRPPRLPRPRPRPWGDPRP  Escherichia coli TOP10      0.41
26  RRIRWRPPRLPRPRPRPSEHPRP  Escherichia coli TOP10   -0.0852
27  RRIRVRPPRLPRPRPRPSICPRP  Escherichia coli TOP10    -0.208
28  RRIRGRPPRLPRPRPRPAGNPRP  Escherichia coli TOP10     0.693
29  RRIRDRPPRLPRPRPRPTGAPRP  Escherichia coli TOP10      1.37
30  RRIRGRPPRLPRPRPRPWCGPRP  Escherichia coli TOP10      0.58
31  RRIRLRPPRLPRPRPRPITMPRP  Escherichia coli TOP10    -0.168
32  RRIRFRPPRLPRPRPRPSWMPRP  Escherichia coli TOP10   -0.0113
33  RRIRVRPPRLPRPRPRPPTEPRP  Escherichia coli TOP10     0.273
34  RRIRWRPPRLPRPRPRPIQFPRP  Escherichia coli TOP10   -0.0539
35  RRIRYRPPRLPRPRPRPFICPRP  Escherichia coli TOP10    -0.579
36  RRIRSRPPRLPRPRPRPPCRPRP  Escherichia coli TOP10     0.426
37  RRIRERPPRLPRPRPRPLEVPRP  Escherichia coli TOP10    -0.166
38  RRIRFRPPRLPRPRPRPNRTPRP  Escherichia coli TOP10   -0.0619
39  RRIRHRPPRLPRPRPRPRGEPRP  Escherichia coli TOP10   -0.0677
40  RRIRYRPPRLPRPRPRPCMWPRP  Escherichia coli TOP10    0.0465
41  RRIRLRPPRLPRPRPRPAGCPRP  Escherichia coli TOP10     0.263
42  RRIRCRPPRLPRPRPRPDKPPRP  Escherichia coli TOP10    0.0422
43  RRIRRRPPRLPRPRPRPISPPRP  Escherichia coli TOP10  -0.00237
44  RRIRIRPPRLPRPRPRPFWIPRP  Escherichia coli TOP10    -0.193
45  RRIRFRPPRLPRPRPRPNRMPRP  Escherichia coli TOP10    0.0762
46  RRIRIRPPRLPRPRPRPQYNPRP  Escherichia coli TOP10     -1.12
47  RRIRWRPPRLPRPRPRPVMVPRP  Escherichia coli TOP10    0.0467
48  RRIRLRPPRLPRPRPRPVCSPRP  Escherichia coli TOP10     -0.14
49  RRIRLRPPRLPRPRPRPGSNPRP  Escherichia coli TOP10     -0.57
50  RRIRDRPPRLPRPRPRPQANPRP  Escherichia coli TOP10     0.231
51  RRIRVRPPRLPRPRPRPNDRPRP  Escherichia coli TOP10   -0.0172
52  RRIRCRPPRLPRPRPRPEIQPRP  Escherichia coli TOP10     0.141
53  RRIRFRPPRLPRPRPRPDWSPRP  Escherichia coli TOP10    -0.214
54  RRIRHRPPRLPRPRPRPYGHPRP  Escherichia coli TOP10    -0.551
55  RRIRFRPPRLPRPRPRPWRLPRP  Escherichia coli TOP10    -0.799
56  RRIRKRPPRLPRPRPRPAGPPRP  Escherichia coli TOP10     0.368
57  RRIRGRPPRLPRPRPRPDHKPRP  Escherichia coli TOP10    -0.154
58  RRIRERPPRLPRPRPRPCLAPRP  Escherichia coli TOP10    -0.526
59  RRIRIRPPRLPRPRPRPECSPRP  Escherichia coli TOP10    -0.428
60  RRIRQRPPRLPRPRPRPQCQPRP  Escherichia coli TOP10      0.05
61  RRIRPRPPRLPRPRPRPYITPRP  Escherichia coli TOP10    -0.739
62  RRIRYRPPRLPRPRPRPVILPRP  Escherichia coli TOP10   -0.0444
63  RRIRKRPPRLPRPRPRPYYWPRP  Escherichia coli TOP10    -0.281
